quantity-measured: CO2 permeability (Barrer)

Sample records with CO2 permeability:
{"columns": ["compound", "CO2 permeability (Barrer)"],
 "data": [
  ["*CC(*)c1ccc([Si](C)(C)C)cc1 (repeat unit)", 227],
  ["*c1cc(C(c2ccc(C)c(-n3c(=O)c4cc5oc6cc7c(cc6oc5cc4c3=O)C3(CC(C)(C)c4cc5oc6cc8c(=O)n(*)c(=O)c8cc6oc5cc43)CC7(C)C)c2)(C(F)(F)F)C(F)(F)F)ccc1C (repeat unit)", 210],
  ["*Oc1cccc2c(Oc3ccc(S(=O)(=O)c4ccc(*)cc4)cc3)cccc12 (repeat unit)", 1.6],
  ["*c1ccc(-c2nnc(-c3cccc(-c4nnc(*)n4-c4ccccc4)c3)n2-c2ccccc2)cc1 (repeat unit)", 5.2]
]}

[A] *c1ccc(Oc2cccc(N3C(=O)c4ccc(C(c5ccc6c(c5)C(=O)N(*)C6=O)(C(F)(F)F)C(F)(F)F)cc4C3=O)c2)cc1 (repeat unit)
[B] *Oc1ccc(C(C)(C)c2ccc(Oc3ccc(C(=O)c4ccc(C(=O)c5ccc(*)cc5)cc4)cc3)cc2)cc1 (repeat unit)
[C] *Oc1c(-c2ccccc2)cc(*)cc1-c1ccccc1 (repeat unit)
[D] *c1ccc(Oc2ccc(C3(c4ccc(Oc5ccc(N6C(=O)c7ccc(C(c8ccc9c(c8)C(=O)N(*)C9=O)(C(F)(F)F)C(F)(F)F)cc7C6=O)cc5)cc4)c4ccccc4-c4ccccc43)cc2)cc1 (repeat unit)
[E] *c1cc(C(=O)OCCC(F)(F)C(F)(F)C(F)(F)C(F)(F)C(F)(F)C(F)(F)F)cc(N2C(=O)c3ccc(C(=O)c4ccc5c(c4)C(=O)N(*)C5=O)cc3C2=O)c1 (repeat unit)
// sort entries: CO2 permeability, high to low Returns: the labels listed in the requested order. E, C, D, A, B
(E: 75 Barrer, C: 39.9 Barrer, D: 19.9 Barrer, A: 6.11 Barrer, B: 2.19 Barrer)

====

quantity-measured: H2 permeability (Barrer)

Sample records with H2 permeability:
{"columns": ["compound", "H2 permeability / Barrer"],
 "data": [
  ["*Oc1ccc(-c2c(-c3ccc(Br)cc3)c(-c3ccc(Br)cc3)c(-c3ccc4c(c3)Oc3c(C#N)c(*)c(*)c(C#N)c3O4)c(-c3ccc(Br)cc3)c2-c2ccc(Br)cc2)cc1O* (repeat unit)", 694],
  ["*/C(C)=C(/*)[Si](C)(C)CCCC (repeat unit)", 65]
]}

[P] *c1cc(-c2nc3cc(-c4ccc5[nH]c(*)nc5c4)ccc3[nH]2)cc(C(C)(C)C)c1 (repeat unit)
[Q] *C1C(*)C2CC1C1C2C([Si](C)(C)C)C1[Si](C)(C)C (repeat unit)
Field: entry with larger H2 permeability (options P / Q ). Pick one; state its label. Q

====

quantity-measured: CO2 permeability (Barrer)

Sample records with CO2 permeability:
{"columns": ["molecule", "CO2 permeability [Barrer]"],
 "data": [
  ["*Nc1ccc(S(=O)(=O)c2ccc(NC(=O)c3cccc(C(*)=O)c3)cc2)cc1 (repeat unit)", 0.78],
  ["*C(F)(F)C(*)(F)F (repeat unit)", 12.7]
]}

[P] *c1ccc(-c2ccc(Oc3ccc(C4(c5ccc(Oc6ccc(-c7ccc(N8C(=O)c9ccc(Oc%10ccc%11c(c%10)C(=O)N(*)C%11=O)cc9C8=O)cc7)cc6C(F)(F)F)cc5)c5ccccc5C(=O)N4c4ccccc4)cc3)c(C(F)(F)F)c2)cc1 (repeat unit)
[Q] *Oc1cc2c(cc1O*)C1(CC2(C)C)CC(C)(C)c2cc3c(cc21)Oc1c(CN)c(*)c(*)c(CN)c1O3 (repeat unit)
[R] *C(=C(*)c1ccc(CCCC)cc1)c1ccccc1 (repeat unit)
[S] *c1c(C)cc(-c2cc(C)c(N3C(=O)c4cc5c(cc4C3=O)C3(CC(C)(C)c4cc6c(cc43)C(=O)N(*)C6=O)CC5(C)C)c3ccccc23)c2ccccc12 (repeat unit)
[T] *Oc1ccc(Oc2ccc(Oc3ccc(S(=O)(=O)c4ccc(*)cc4)cc3)cc2)cc1 (repeat unit)
// sort entries: CO2 permeability, high to low Returns: the labels listed in the requested order. S, Q, R, P, T

[a] *c1ccc(Oc2ccc(N3C(=O)c4cc(Oc5ccc(C(C)(C)C)cc5)c(-c5cc6c(cc5Oc5ccc(C(C)(C)C)cc5)C(=O)N(*)C6=O)cc4C3=O)cc2)cc1 (repeat unit)
[b] *C(=C(*)c1ccc2c(c1)C(C)(C)C(C)(C)C2(C)C)c1ccccc1 (repeat unit)
// returns a or b , whichever has the lower CO2 permeability Pick one; state its label. a

Attribution: a polymer gas permeability compilation
